Test system: DU145 Prostate Cancer Cells
Test Summary: MTT cytotoxicity assay, DU145 prostate cancer cells
Format: cell-based, human
Condition Parameters: Homo sapiens, DU-145, 72 h, 3 days, read-out: CD50, vitamin alone
Assay Readout: pIC50
# pIC50 = -log10(concentration in molar units)

O=C1O[C@H]([C@@H](O)CO)C(O)=C1O [NaVC, sodium ascorbate] ... 3.00

query: Report pIC50 for CC1=CC(=O)c2ccccc2C1=O [VK3, 2-methyl-1,4-naphthoquinone] please.
result: 4.43

These entries and their values trace back to patent US8507555B2.
